# system tested: CYP2C19 (Homo sapiens, UniProt P33261)
# Sequence (P33261 whole entry): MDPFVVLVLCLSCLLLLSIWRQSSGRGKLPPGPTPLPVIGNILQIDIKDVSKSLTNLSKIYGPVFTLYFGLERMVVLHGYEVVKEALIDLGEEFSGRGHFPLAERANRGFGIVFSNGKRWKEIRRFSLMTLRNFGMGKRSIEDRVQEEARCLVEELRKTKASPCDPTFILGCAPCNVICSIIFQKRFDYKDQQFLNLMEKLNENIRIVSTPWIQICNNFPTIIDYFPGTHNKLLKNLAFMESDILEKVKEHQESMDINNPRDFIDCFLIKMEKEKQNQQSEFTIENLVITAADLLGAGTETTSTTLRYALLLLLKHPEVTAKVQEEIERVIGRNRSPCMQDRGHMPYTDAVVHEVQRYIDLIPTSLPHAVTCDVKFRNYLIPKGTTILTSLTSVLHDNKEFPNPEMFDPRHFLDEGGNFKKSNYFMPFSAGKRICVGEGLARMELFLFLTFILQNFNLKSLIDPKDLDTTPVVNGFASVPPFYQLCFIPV
# method description: CYP2C19 inhibition LCMS
# Format: in vitro ADME
# condition details: second session (after /)

[
  {
    "test smiles": "C=CC(=O)Nc1cc(CC(=O)OC)cc(-c2cnc3ccccc3n2)c1",
    "relation operator": "=",
    "IC50 / µM": 95
  },
  {
    "test smiles": "C=CC(=O)Nc1cc(CN2CCNC(=O)C2)cc(-c2cnc3ccccc3n2)c1",
    "relation operator": ">",
    "IC50 / µM": 100
  },
  {
    "test smiles": "C=CC(=O)Nc1cc(NS(C)(=O)=O)cc(-c2cnc3ccccc3n2)c1",
    "relation operator": "=",
    "IC50 / µM": 59
  },
  {
    "test smiles": "C=CC(=O)Nc1cc(CN2CCN(C)C(=O)C2)cc(-c2cnc3ccccc3n2)c1",
    "relation operator": "=",
    "IC50 / µM": 90
  }
]
